Consider the following compounds; for each one, report its IC50.
Target: P2X2/3 (UniProt P56373+Q9UBL9)
Construct: hP2X2/3 (Cat #6179)
Experiment: FLIPR intracellular calcium assay, P2X2/3
Settings: agonist at EC75, species of receptor not given

COc1ccc(CNC(=O)c2cc(-n3nnnc3C3CCC3)c3ncc(-c4ccc(C)s4)n3c2)cn1 = 1 to 100 nM
Cc1ccc(-c2cnc3c(NC4CCCCC4)cc(C(=O)NCc4ccc(C)[n+]([O-])c4)cn23)s1 = 1 to 100 nM

Let's switch to this compound now.
The recorded IC50 with P2X2/3 (UniProt P56373+Q9UBL9) for `Cc1cnc(-c2cnc3c(N4CCC(C)CC4)cc(C(=O)NCc4ccc(C)[n+]([O-])c4)cn23)s1` was 100 to 1000 nM

From: patent US9908879B2
